# System: MOLT-4 leukemia
# EXPERIMENTAL_PROTOCOL: NCI tumour cell line growth inhibition, 48 h
QUANTITY_MEASURED: TGI (µM)
The reply should contain only the number, in µM.

For CCOC(=O)/C(=C/c1ccc(OC)c(OC)c1)C(=O)c1ccccc1 , write its TGI.
48.9

Note TGI for the molecule shown: Cc1nc(NC(=S)NC(=O)c2ccc(Cl)c(Cl)c2)sc1C(=O)/C=C/c1ccccc1[N+](=O)[O-]
52.6

Read off the recorded TGI for CC1=CC(C)C(C)N(CCNC(=O)Nc2ccccc2)c2ccccc21 (stereo not given)
64.4

Could you please provide reported TGI for Nn1c(CCCl)nc2c(Br)cc(Br)cc2c1=O ? Thanks!
61.3

----------
# Tested on: SW-620 colon
# EXPERIMENTAL_PROTOCOL: NCI tumour cell line growth inhibition, 48 h; in the data active = GI50 below about 0.43 µM; inactive = the rest
Mark one answer only. Choices: active, inactive

Hi, do you know how C#C[C@@]1(O)[C@@H](CO)O[C@@H](n2cc(Cl)c3c(N)ncnc32)[C@@H]1O came out in this test?
active

Record request — test call for CCCCCCN(CCCCCC)C(=N)c1ccnc2ccccc12
inactive

What classification did C=C(C)C(=O)NC(N)=NC#N end up with in this test?
inactive

What did the test return for CCN1C(=O)N(CC)C2C1NN=c1s/c(=C3\C(=O)N(CCC(C)C)c4ccccc43)c(=O)n12 (stereo not given) ?
inactive

// outcome(item) with item = CC[O-].CC[O-].[O-]c1ccccc1C=Nc1ccccc1.[O-]c1ccccc1C=Nc1ccccc1.[Ti+4]
inactive

----------
# Test system: OVCAR-8 ovarian
# EXPERIMENTAL_PROTOCOL: NCI tumour cell line growth inhibition, 48 h
QUANTITY_MEASURED: TGI

Check the records and state TGI for Oc1c(Br)cc(Br)cc1CN(Cc1cc(Br)cc(Br)c1O)C1CCCCC1
> 100 µM

Identify the reported TGI for the following entry. CN1CCC23c4c5ccc(O)c4OC2C(=NN=C2CCC4(O)C6Cc7ccc(O)c8c7C4(CCN6C)C2O8)CCC3(O)C1C5 (stereo not drawn)
> 100 µM

In one line, give reported TGI of the entry CCOC(=O)/C(=C/c1ccc(OC)c(OC)c1)C(=O)c1ccccc1 .
76.8 µM

For the compound COc1ccc2[nH]c3c4c(c5cc(C(C)(C)C)ccc5c3c2c1)C(=O)N(c1ccccc1)C4=O , give its reported TGI.
> 100 µM

Please indicate TGI recorded for COc1cc2c(c(OC)c1OC)-c1ccc(OC)c(=O)cc1[C@@H](NC(=O)CCl)CC2
> 33.6 µM

Give TGI for CCCCCCCC/C=C\CCCCCCCCNc1ccn(C2OC(COP(=O)(O)OC3CC(n4cc(F)c(=O)[nH]c4=O)OC3CO)C(O)C2O)c(=O)n1 (stereo not drawn)
> 100 µM

Answer with the recorded TGI of COC(=O)[C@H](CCSC)NC(=O)c1ccc(CNC(=O)/C=C/c2cccc(Oc3ccccc3)c2)cc1 only.
> 100 µM

Tell us which TGI value is on record for O=C(OC(C(=O)O)C(OC(=O)c1ccccc1)C(=O)O)c1ccccc1 (stereo not drawn) (tested in a mixture with another compound)
> 100 µM

----------
# Test system: KM12 colon
# EXPERIMENTAL_PROTOCOL: NCI tumour cell line growth inhibition, 48 h
QUANTITY_MEASURED: TGI

Output TGI of COC(=O)C1([C@@H]2C[C@@H](O)[C@]3(C)CC/C=C(\C)CCC[C@H](C)[C@H](O)[C@@H]2O3)CC1
> 100 µM

Provide only the value of recorded TGI for CC12CN(CC[N+](C)(C)C)CC1(C)C1CCC2O1 (centres undefined)
> 100 µM

Give the reported TGI for this molecule. COc1cc2c(c(OC)c1OC)-c1ccc(OC)c(=O)cc1[C@@H](NC(=O)CCl)CC2
0.0521 µM

Identify measured TGI corresponding to CC(C)(C)CN1[C@@H]2CCCC[C@H]2N(CC(C)(C)C)P1(=O)Cc1ccccc1
34.3 µM

Please indicate TGI recorded for CNC(=O)Nc1cc2c3c(c1)CCCN3CCC2
> 10 µM

State its TGI: CC(=O)O[C@H](C[C@H](C(C)C)N(C)C(=O)[C@@H](NC(=O)[C@H]1CCCCN1C)C(C)C)c1nc(C(=O)N[C@@H](Cc2ccccc2)C[C@H](C)C(=O)O)c(C)s1
> 25 µM

Supply TGI value. Item: COc1ccc(-c2coc3ncnc(N)c23)cc1
> 25 µM

Using known records, supply TGI for CC1=C(C)SC(=C2Sc3c(n(C)c(=O)[nH]c3=O)S2)S1
> 100 µM

# return recorded TGI for input N#Cc1c(C#N)c(-c2cccc([N+](=O)[O-])c2)n(-c2ccccc2)c1N
> 100 µM

Origin of values: PubChem BioAssay (NCI)
